Below: a set of entries, each annotated with reported IC50.
target: Neuronal acetylcholine receptor; alpha9/alpha10 (Homo sapiens, UniProt Q9GZZ6+Q9UGM1); assay: Antagonist activity at human alpha9alpha10 nAChR expressed in Xenopus laevis oocytes assessed as inhibition of Ach-induced response at -70 mV holding potential measured after 5 mins by two electrode voltage-clamp electrophysiology method; type: cell-based, Oocyte
Sequence (Q9UGM1 whole entry): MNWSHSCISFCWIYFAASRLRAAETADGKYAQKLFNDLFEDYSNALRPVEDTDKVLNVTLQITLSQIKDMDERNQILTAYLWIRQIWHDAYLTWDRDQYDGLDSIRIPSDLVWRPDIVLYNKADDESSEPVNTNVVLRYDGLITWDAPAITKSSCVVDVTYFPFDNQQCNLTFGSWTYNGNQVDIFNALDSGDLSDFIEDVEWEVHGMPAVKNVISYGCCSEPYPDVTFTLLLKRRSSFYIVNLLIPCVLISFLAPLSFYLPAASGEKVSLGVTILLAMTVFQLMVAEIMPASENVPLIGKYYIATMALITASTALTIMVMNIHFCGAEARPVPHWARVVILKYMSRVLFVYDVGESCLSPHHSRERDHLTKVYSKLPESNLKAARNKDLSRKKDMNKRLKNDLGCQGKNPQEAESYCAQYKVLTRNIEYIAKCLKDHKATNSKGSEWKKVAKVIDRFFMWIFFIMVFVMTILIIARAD
Sequence (Q9GZZ6 whole entry): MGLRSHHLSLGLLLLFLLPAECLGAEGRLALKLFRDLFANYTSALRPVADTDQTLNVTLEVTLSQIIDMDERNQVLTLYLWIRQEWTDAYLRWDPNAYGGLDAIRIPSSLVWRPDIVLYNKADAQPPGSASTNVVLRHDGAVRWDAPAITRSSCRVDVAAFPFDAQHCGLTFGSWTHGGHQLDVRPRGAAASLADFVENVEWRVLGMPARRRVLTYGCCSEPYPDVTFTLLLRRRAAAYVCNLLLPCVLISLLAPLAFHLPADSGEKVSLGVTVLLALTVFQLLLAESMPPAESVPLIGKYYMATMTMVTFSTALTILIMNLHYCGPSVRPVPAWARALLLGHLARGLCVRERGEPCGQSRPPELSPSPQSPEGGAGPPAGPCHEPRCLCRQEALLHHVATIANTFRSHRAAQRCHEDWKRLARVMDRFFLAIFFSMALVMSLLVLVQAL
Peptide text beside a SMILES is read from it.

compound	IC50
C[C@H](NC(=O)[C@H](CCCNC(=N)N)NC(=O)[C@H](CCCNC(=N)N)NC(=O)[C@@H]1CCCN1C(=O)[C@H](CO)NC(=O)[C@H](CS)NC(=O)[C@H](C)NC(=O)[C@@H]1CCCN1C(=O)[C@H](Cc1c[nH]cn1)NC(=O)[C@H](CO)NC(=O)[C@H](CS)NC(=O)[C@H](CS)NC(=O)CN)C(=O)N[C@@H](CCCNC(=N)N)C(=O)N[C@@H](CO)C(=O)N[C@@H](CS)C(=O)O (H-GCCSHPACSPRRARSC-OH)	1.12 µM
CC[C@H](C)[C@H](NC(=O)[C@H](CCC(=O)O)NC(=O)[C@@H]1CCCN1C(=O)[C@H](Cc1c[nH]cn1)NC(=O)[C@H](CC(=O)O)NC(=O)[C@@H](NC(=O)[C@H](CC(N)=O)NC(=O)[C@H](CS)NC(=O)[C@H](C)NC(=O)[C@@H]1CCCN1C(=O)[C@H](Cc1c[nH]cn1)NC(=O)[C@H](CO)NC(=O)[C@H](CS)NC(=O)[C@H](CS)NC(=O)CN)C(C)C)C(=O)N[C@@H](CS)C(=O)O	> 10 µM
C[C@H](NC(=O)[C@H](CCCNC(=N)N)NC(=O)[C@H](CO)NC(=O)[C@H](CCCNC(=N)N)NC(=O)[C@H](CO)NC(=O)[C@H](CS)NC(=O)[C@H](C)NC(=O)[C@@H]1CCCN1C(=O)[C@H](Cc1c[nH]cn1)NC(=O)[C@H](CO)NC(=O)[C@H](CS)NC(=O)[C@H](CS)NC(=O)CN)C(=O)N[C@@H](CO)C(=O)N[C@@H](CO)C(=O)N[C@@H](CS)C(=O)O (H-GCCSHPACSRSRASSC-OH)	> 10 µM

----------
molecular target: Neuronal acetylcholine receptor; alpha9/alpha10 (Homo sapiens, UniProt Q9GZZ6+Q9UGM1); assay: Antagonist activity at human alpha9alpha10 nAChR expressed in Xenopus laevis oocytes assessed as inhibition of Ach-induced response at -70 mV holding potential measured after 5 mins by two electrode voltage-clamp electrophysiology method; assay type: cell-based, Oocyte
Peptide text beside a SMILES is read from it.
readout_label: IC50 (µM)

molecule	unit_string	measured_result
C[C@H](NC(=O)[C@H](CCCNC(=N)N)NC(=O)[C@H](CCCNC(=N)N)NC(=O)[C@H](CCCNC(=N)N)NC(=O)[C@H](CO)NC(=O)[C@H](CS)NC(=O)[C@H](C)NC(=O)[C@@H]1CCCN1C(=O)[C@H](Cc1c[nH]cn1)NC(=O)[C@H](CO)NC(=O)[C@H](CS)NC(=O)[C@H](CS)NC(=O)CN)C(=O)N[C@@H](CCCNC(=N)N)C(=O)N[C@@H](CO)C(=O)N[C@@H](CS)C(=O)O (H-GCCSHPACSRRRARSC-OH)	µM	0.0981
C[C@H](NC(=O)[C@H](CCCNC(=N)N)NC(=O)[C@H](CCCNC(=N)N)NC(=O)[C@H](Cc1c[nH]cn1)NC(=O)[C@H](CO)NC(=O)[C@H](CS)NC(=O)[C@H](C)NC(=O)[C@@H]1CCCN1C(=O)[C@H](Cc1c[nH]cn1)NC(=O)[C@H](CO)NC(=O)[C@H](CS)NC(=O)[C@H](CS)NC(=O)CN)C(=O)N[C@@H](CCCNC(=N)N)C(=O)N[C@@H](CO)C(=O)N[C@@H](CS)C(=O)O (H-GCCSHPACSHRRARSC-OH)	µM	1.29
C[C@H](NC(=O)[C@H](CCCNC(=N)N)NC(=O)[C@H](CCCNC(=N)N)NC(=O)[C@H](Cc1c[nH]cn1)NC(=O)[C@H](CO)NC(=O)[C@H](CCCCN)NC(=O)[C@H](CS)NC(=O)[C@H](C)NC(=O)[C@@H]1CCCN1C(=O)[C@H](Cc1c[nH]cn1)NC(=O)[C@H](CO)NC(=O)[C@H](CS)NC(=O)[C@H](CS)NC(=O)CN)C(=O)N[C@@H](CCCNC(=N)N)C(=O)N[C@@H](CS)C(=O)O (H-GCCSHPACKSHRRARC-OH)	µM	0.133
